tested on: RAW-Dual (murine macrophage reporter line); assay: IRF reporter (Lucia luciferase) activity fold change vs agonist alone; higher = enhanced IRF activity; settings: modulator concentration 10 µM; agonist: LPS 0.1 ug/mL
readout-type: IRF reporter
# respond with the number and nothing more

Fill: IRF reporter (RAW-Dual (murine macrophage reporter line)) for this compound Cc1cc(-n2cc(C(=O)N3CCOCC3)nn2)ccc1F
1.01

Fill: IRF reporter (RAW-Dual (murine macrophage reporter line)) for this compound N#CCCN(C1CCCCC1)S(=O)(=O)c1cccc2nsnc12
1.33

Fill: IRF reporter (RAW-Dual (murine macrophage reporter line)) for this compound O=Cc1ccc(OCc2cccc([N+](=O)[O-])c2)c(Br)c1
1.4

Fill: IRF reporter (RAW-Dual (murine macrophage reporter line)) for this compound Nc1c2c(nc3ccccc13)CCCC2 [Prestw-329]
1.55

Fill: IRF reporter (RAW-Dual (murine macrophage reporter line)) for this compound O=C(NCC(O)(c1ccccc1)C(F)(F)F)c1ccc(Br)o1 (stereo unspecified)
1.04

Fill: IRF reporter (RAW-Dual (murine macrophage reporter line)) for this compound CCOC(=O)[C@H](CCc1ccccc1)N[C@H]1CCc2ccccc2N(CC(=O)O)C1=O.Cl
0.935

Fill: IRF reporter (RAW-Dual (murine macrophage reporter line)) for this compound CC(C)(C)c1cc(C=NO)c(C(C)(C)C)s1
1.13

Fill: IRF reporter (RAW-Dual (murine macrophage reporter line)) for this compound O=C(N/N=C/c1ccc([N+](=O)[O-])o1)c1ccc(O)cc1
1.88

Fill: IRF reporter (RAW-Dual (murine macrophage reporter line)) for this compound CC(=O)n1cc(C=C(C)[N+](=O)[O-])c2ccccc21
0.297

Fill: IRF reporter (RAW-Dual (murine macrophage reporter line)) for this compound CC1=C(C(=O)OCc2ccc3c(c2)OCO3)C(c2ccc(Cl)c(Cl)c2)NC(=O)N1 (stereo unspecified)
0.712

Fill: IRF reporter (RAW-Dual (murine macrophage reporter line)) for this compound Br.CN(C)CCCC1(c2ccc(F)cc2)OCc2cc(C#N)ccc21 (stereo unspecified)
1.37

====

Provide the recorded IRF reporter for the entries that follow.
system: RAW-Dual (murine macrophage reporter line); assay: IRF reporter (Lucia luciferase) activity fold change vs agonist alone; higher = enhanced IRF activity; settings: modulator concentration 10 µM; agonist: MPLA […]
# respond with the number and nothing more

For Nc1ncn(C2OC(CO)C(O)C2O)c(=O)n1 (configuration not stated) , write its IRF reporter.
0.714

For CC(C)(C(=O)c1cccnc1)c1cccnc1 , write its IRF reporter.
0.901

For Cc1cccc(Oc2ccc(NC(=O)c3ccco3)cc2)c1 , write its IRF reporter.
1.27

For CNc1ncnc2c1ncn2[C@@H]1O[C@H](CO)[C@@H](O)[C@H]1O , write its IRF reporter.
1.33

For O=C(CSC1CCCCC1)Nc1ccc(Br)cc1 , write its IRF reporter.
1.12

For COC(=O)N[C@H](C(=O)N1CCC[C@H]1c1ncc(-c2ccc(-c3ccc(-c4cnc([C@@H]5CCCN5C(=O)[C@@H](NC(=O)OC)C(C)C)[nH]4)cc3)cc2)[nH]1)C(C)C , write its IRF reporter.
4.38

For CCCOc1ccc(C2NC(=O)NC(C)=C2C(=O)OC(C)C(C)(C)C)cc1OC (configuration not stated) , write its IRF reporter.
0.656

For O=C(CN1CCN(c2ccccc2F)C1=O)N1CCCC(Oc2cnccn2)C1 (configuration not stated) , write its IRF reporter.
1.37

For COC(CNS(=O)(=O)Cc1ccccc1)c1ccc(Cl)s1 (configuration not stated) , write its IRF reporter.
1.16

For O=C(O)c1cc(S(=O)(=O)N2CCCCC2)c(Cl)cc1Cl , write its IRF reporter.
1.06

For Cc1cc(Cl)ccc1OCC(O)CN1CC(C)OC(C)C1.Cl (configuration not stated) , write its IRF reporter.
1.01

For Cc1cc(O)nc(NN)n1 , write its IRF reporter.
0.861

For CN(C)c1nc(CNC(=O)c2cnn(-c3ccccc3)n2)nc(N2CCCC2)n1 , write its IRF reporter.
1.13

For CCCOc1cccc(C(=O)Nc2cccc(S(N)(=O)=O)c2)c1 , write its IRF reporter.
1.05

For Cc1ccc(OCC(=O)N2CCN(c3ccc(-n4cncn4)nn3)CC2)c(C(C)(C)C)c1 , write its IRF reporter.
0.87

For O=C1Cc2cc(NC(=O)c3ccc(OC(F)(F)F)cc3)ccc2N1 , write its IRF reporter.
0.99

For COc1ccc(C=NNC(=O)CSc2nnc(-c3ccccc3)n2-c2ccccc2)cc1OC , write its IRF reporter.
1

For CC1(C)OC(=O)C(=Cc2ccc(I)o2)C(=O)O1 , write its IRF reporter.
0.877

For CC(=O)Nc1ccc(S(=O)(=O)N2CCC(Oc3nc(C)cc(C)n3)C2)cc1 (configuration not stated) , write its IRF reporter.
0.932

For O=C1NC(=O)C(=Cc2ccc(F)cc2)S1 , write its IRF reporter.
1.02

For O=C(NCCO)c1cc(C(=O)NCCO)cc(C(=O)NCCO)c1 , write its IRF reporter.
1.18

For NC(=O)CC[C@H](N)C(=O)O , write its IRF reporter.
1.04
